# CONDITION_NOTES: [M+H]+; instrument: TW; calibrated with polyalanine and drug standards
VALUE_KIND: collision cross section (N2) (Å²)

• COc1cnc(NS(=O)(=O)c2ccc(N)cc2)nc1 = 159
• CCCCOC(=O)c1ccc(N)cc1 = 159.4
• CC(=O)OCC(=O)[C@@]12OC(C)(C)O[C@@H]1C[C@H]1[C@@H]3C[C@H](F)C4=CC(=O)C=C[C@]4(C)[C@@]3(F)[C@@H](O)C[C@@]12C [FLUOCINONIDE] = 229.9
• C=C[C@@](C)(O)CCC1C(=C)C[C@H](O)C2C(C)(C)CCCC12C (some centres undefined) = 176.2
